System: Lung
procedure details: Biodistribution in ddY mouse lung at 0.1 to 0.4 uCi, iv after 60 mins by gamma counting
Format: ADME, organism-based
cond: in vivo, 1 h
experimental readout: Drug uptake (% ID/g)

Please review the following examples before continuing.
| compound | Drug uptake / % ID/g |
| --- | --- |
| COc1c2ccc([125I])cc2nc2ccc(N(C)C)cc12 | 3.87 |
| COc1ccc2nc3cc([125I])ccc3c(N(C)C)c2c1 | 21.84 |

[a] CCN(CC)CCCC(C)Nc1c2ccc([125I])cc2nc2ccc(OC)cc12 (stereo unspecified)
[b] CNc1c2ccc([125I])cc2nc2ccc(OC)cc12
[c] COc1ccc2nc3cc([125I])ccc3c(N)c2c1
# rank by Drug uptake, ascending (min first) # format: label list in the order the request specifies
c, b, a

---

System: Kidney
procedure details: Biodistribution in ddY mouse kidney at 0.1 to 0.4 uCi, iv after 2 mins by gamma counting
Type: ADME, organism-based
cond: in vivo
experimental readout: Drug uptake (% ID/g)

Examples with their reported Drug uptake follow.
| molecule | subject of test | uom | readout number |
| --- | --- | --- | --- |
| COc1ccc2nc3cc([125I])ccc3c(OC)c2c1 | Kidney | % ID/g | 8.07 |
| CNc1c2ccc([125I])cc2nc2ccc(OC)cc12 | Kidney | % ID/g | 12.98 |
| CCN(CC)CCCC(C)Nc1c2ccc([125I])cc2nc2ccc(OC)cc12 (stereo unspecified) | Kidney | % ID/g | 10.23 |
| COc1ccc2nc3cc([125I])ccc3c(N)c2c1 | Kidney | % ID/g | 9.81 |

[I] COc1c2ccc([125I])cc2nc2ccc(N(C)C)cc12
[II] COc1ccc2nc3cc([125I])ccc3c(N(C)C)c2c1
I need your help: which of the pair I , II has higher Drug uptake? In your reply, give the label of the chosen option.
II
(II: 16.71 % ID/g, I: 10.94 % ID/g)

---

subject of test: Amyloid-beta precursor protein (Homo sapiens)
Sequence (P05067 whole entry): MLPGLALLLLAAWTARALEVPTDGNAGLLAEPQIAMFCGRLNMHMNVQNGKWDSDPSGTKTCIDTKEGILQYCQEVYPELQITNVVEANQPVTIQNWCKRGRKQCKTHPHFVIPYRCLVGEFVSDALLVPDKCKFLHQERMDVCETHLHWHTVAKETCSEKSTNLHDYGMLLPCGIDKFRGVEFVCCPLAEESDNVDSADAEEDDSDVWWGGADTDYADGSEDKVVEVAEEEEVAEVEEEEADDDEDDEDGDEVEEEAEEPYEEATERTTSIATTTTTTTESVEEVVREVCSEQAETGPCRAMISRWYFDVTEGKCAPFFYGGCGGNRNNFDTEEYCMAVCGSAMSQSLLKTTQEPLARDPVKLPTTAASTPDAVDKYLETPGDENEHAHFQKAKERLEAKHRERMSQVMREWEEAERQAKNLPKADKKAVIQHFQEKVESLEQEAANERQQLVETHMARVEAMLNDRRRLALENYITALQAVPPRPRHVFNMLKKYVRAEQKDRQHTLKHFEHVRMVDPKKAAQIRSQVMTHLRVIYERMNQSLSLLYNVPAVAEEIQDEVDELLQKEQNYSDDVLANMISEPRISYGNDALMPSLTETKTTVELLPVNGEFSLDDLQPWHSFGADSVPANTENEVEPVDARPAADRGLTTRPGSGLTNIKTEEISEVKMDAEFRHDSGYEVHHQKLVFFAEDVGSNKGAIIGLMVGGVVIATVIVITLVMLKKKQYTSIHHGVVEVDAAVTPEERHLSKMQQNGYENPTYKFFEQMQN
procedure details: Binding affinity to amyloid beta aggregate (unknown origin) by centrifugation method
experimental readout: Kd (nM)
Unit nM implied. Number only.

State Kd on Amyloid-beta precursor protein (Homo sapiens). Entry: CCN(CC)CCCC(C)Nc1c2ccc([125I])cc2nc2ccc(OC)cc12 (stereo unspecified)
48.4

---

Tested on: Kidney
procedure details: Biodistribution in ddY mouse kidney at 0.1 to 0.4 uCi, iv after 10 mins by gamma counting
Assay type: ADME, organism-based
cond: in vivo
experimental readout: Drug uptake (% ID/g)

Before answering, review these 2 worked examples.
| compound | uom | readout number |
| --- | --- | --- |
| COc1ccc2nc3cc([125I])ccc3c(N(C)C)c2c1 | % ID/g | 18.16 |
| CNc1c2ccc([125I])cc2nc2ccc(OC)cc12 | % ID/g | 11.89 |

[P] COc1ccc2nc3cc([125I])ccc3c(N)c2c1
[Q] COc1ccc2nc3cc([125I])ccc3c(OC)c2c1
Which numeric Drug uptake is bigger, that of P or that of Q ? Your choice should be expressed through its label.
P

[P] CCN(CC)CCCC(C)Nc1c2ccc([125I])cc2nc2ccc(OC)cc12 (stereo unspecified)
[Q] COc1c2ccc([125I])cc2nc2ccc(N(C)C)cc12
// pick larger Drug uptake from pair: P vs Q Let me know the label of the one you choose.
P

---

Tested on: Spleen
procedure details: Biodistribution in ddY mouse spleen at 0.1 to 0.4 uCi, iv after 2 mins by gamma counting
Assay type: ADME, organism-based
cond: in vivo
experimental readout: Drug uptake (% ID/g)

Reference set (4 entries):
| compound | uom | Drug uptake |
| --- | --- | --- |
| CNc1c2ccc([125I])cc2nc2ccc(OC)cc12 | % ID/g | 7.6 |
| CCN(CC)CCCC(C)Nc1c2ccc([125I])cc2nc2ccc(OC)cc12 (stereo unspecified) | % ID/g | 6.14 |
| COc1ccc2nc3cc([125I])ccc3c(OC)c2c1 | % ID/g | 3.75 |
| COc1c2ccc([125I])cc2nc2ccc(N(C)C)cc12 | % ID/g | 5.09 |

[a] COc1ccc2nc3cc([125I])ccc3c(N(C)C)c2c1
[b] COc1ccc2nc3cc([125I])ccc3c(N)c2c1
Compare a and b and name the one whose reported Drug uptake is smaller. Indicate which entry you chose by stating its label.
b

---

Test system: Blood
procedure details: Biodistribution in ddY mouse blood at 0.1 to 0.4 uCi, iv after 10 mins by gamma counting
Assay type: ADME, organism-based
cond: in vivo
experimental readout: Drug uptake (% ID/g)

| molecule | experimental readout | readout number |
| --- | --- | --- |
| COc1ccc2nc3cc([125I])ccc3c(N(C)C)c2c1 | Drug uptake | 1.97 |
| CNc1c2ccc([125I])cc2nc2ccc(OC)cc12 | Drug uptake | 1.18 |
| COc1ccc2nc3cc([125I])ccc3c(OC)c2c1 | Drug uptake | 2.19 |
| CCN(CC)CCCC(C)Nc1c2ccc([125I])cc2nc2ccc(OC)cc12 (stereo unspecified) | Drug uptake | 1.85 |

[P] COc1ccc2nc3cc([125I])ccc3c(N)c2c1
[Q] COc1c2ccc([125I])cc2nc2ccc(N(C)C)cc12
Between the entries labelled P and Q , which has a larger Drug uptake value on record? # answer = label of selected item
Q
(Q: 7 % ID/g, P: 2.09 % ID/g)

---

System: Stomach
procedure details: Biodistribution in ddY mouse stomach assessed per organ at 0.1 to 0.4 uCi, iv after 2 mins by gamma counting
Format: ADME, organism-based
cond: in vivo
experimental readout: Drug uptake (%ID)

[P] CNc1c2ccc([125I])cc2nc2ccc(OC)cc12
[Q] CCN(CC)CCCC(C)Nc1c2ccc([125I])cc2nc2ccc(OC)cc12 (stereo unspecified)
Pick the one with the larger Drug uptake: P vs Q Kindly give the label for the entry you pick.
P
(P: 1.71 %ID, Q: 1.18 %ID)

[P] COc1c2ccc([125I])cc2nc2ccc(N(C)C)cc12
[Q] COc1ccc2nc3cc([125I])ccc3c(N)c2c1
Please choose the item with the lower Drug uptake value from this pair: P and Q # answer = label of selected item
Q

---

Tested on: Pancreas
procedure details: Biodistribution in ddY mouse pancreas at 0.1 to 0.4 uCi, iv after 30 mins by gamma counting
Format: ADME, organism-based
cond: in vivo, 0.5 h
experimental readout: Drug uptake (% ID/g)

[a] COc1ccc2nc3cc([125I])ccc3c(N)c2c1
[b] COc1ccc2nc3cc([125I])ccc3c(N(C)C)c2c1
[c] COc1c2ccc([125I])cc2nc2ccc(N(C)C)cc12
[d] COc1ccc2nc3cc([125I])ccc3c(OC)c2c1
Arrange these 4 compounds in increasing order of Drug uptake. Would you mind listing the labels in the order requested?
d, c, a, b
(d: 1.33 % ID/g, c: 2.29 % ID/g, a: 4.98 % ID/g, b: 7.85 % ID/g)

[I] CCN(CC)CCCC(C)Nc1c2ccc([125I])cc2nc2ccc(OC)cc12 (stereo unspecified)
[II] CNc1c2ccc([125I])cc2nc2ccc(OC)cc12
Lowest Drug uptake? choose I or II Lab log: write the label of the selected item as the result.
II
(II: 3.55 % ID/g, I: 7.67 % ID/g)

---

Test system: Kidney
procedure details: Biodistribution in ddY mouse kidney at 0.1 to 0.4 uCi, iv after 30 mins by gamma counting
Assay type: ADME, organism-based
cond: in vivo, 0.5 h
experimental readout: Drug uptake (% ID/g)

Here is how some molecules turned out for Drug uptake.
| molecule | uom | Drug uptake |
| --- | --- | --- |
| CCN(CC)CCCC(C)Nc1c2ccc([125I])cc2nc2ccc(OC)cc12 (stereo unspecified) | % ID/g | 13.93 |
| CNc1c2ccc([125I])cc2nc2ccc(OC)cc12 | % ID/g | 10.25 |
| COc1c2ccc([125I])cc2nc2ccc(N(C)C)cc12 | % ID/g | 10.72 |

[A] COc1ccc2nc3cc([125I])ccc3c(N)c2c1
[B] COc1ccc2nc3cc([125I])ccc3c(N(C)C)c2c1
[C] COc1ccc2nc3cc([125I])ccc3c(OC)c2c1
Sort (3 molecules) by Drug uptake: min first. API: response body holds the labels in the requested order.
C, A, B

---

Test system: Liver
procedure details: Biodistribution in ddY mouse liver at 0.1 to 0.4 uCi, iv after 30 mins by gamma counting
Format: ADME, organism-based
cond: in vivo, 0.5 h
experimental readout: Drug uptake (% ID/g)

Example results:
| compound | experimental readout | uom | readout number |
| --- | --- | --- | --- |
| COc1ccc2nc3cc([125I])ccc3c(N)c2c1 | Drug uptake | % ID/g | 8.4 |
| COc1ccc2nc3cc([125I])ccc3c(OC)c2c1 | Drug uptake | % ID/g | 13.65 |
| CNc1c2ccc([125I])cc2nc2ccc(OC)cc12 | Drug uptake | % ID/g | 8.26 |
| COc1ccc2nc3cc([125I])ccc3c(N(C)C)c2c1 | Drug uptake | % ID/g | 16.43 |

[P] COc1c2ccc([125I])cc2nc2ccc(N(C)C)cc12
[Q] CCN(CC)CCCC(C)Nc1c2ccc([125I])cc2nc2ccc(OC)cc12 (stereo unspecified)
Which has the smaller recorded Drug uptake, P or Q ? I would appreciate it if you answered with the label of your choice.
Q

# credit: ChEMBL document CHEMBL2321753
